System: DLD-1
test-method-notes: NCI tumour cell line growth inhibition, 48 h
Activity calls are given as the source filed them. Cut-off read from the data, not from the text of the source: active = GI50 up to about 1.1 µM and inactive = higher.
Labels: yes = active, no = inactive

[[record]]
compound = "CCOC(=O)N1CCc2cc(OC)c(OC)c3c2C1CC3=O (stereo unspecified)"
group = "no"

[[record]]
compound = "Cc1nc2ccccc2c(=O)n1-c1ccccc1F"
group = "no"

[[record]]
compound = "CCCCCCCCCCCCC(O)C1CCC(C(O)CCCCC(O)CCCCCC2CC(CC(C)=O)C(=O)O2)O1 (stereo unspecified)"
group = "no"

[[record]]
compound = "CN(c1nc(=[N+](C)C)ss1)C1CCCCC1"
group = "no"

[[record]]
compound = "CC(=O)OC(C)(C)C[N+](=O)[O-]"
group = "no"

[[record]]
compound = "Cc1ccc(C)c(NC(=O)CC/C(=N\\NC(=O)C(N)=O)C(C)C(=O)c2ccc(O)cc2)c1 (stereo unspecified)"
group = "no"

[[record]]
compound = "CCCCCCCCCCCCCC(=O)OCC1OC(n2cc(F)c(=O)[nH]c2=O)C(NC(=O)OCc2ccccc2)C(OC(=O)CCCCCCCCCCCCC)C1O (stereo unspecified)"
group = "no"

[[record]]
compound = "CCN(CC)CCCCC1CCN(CC(=O)N2c3ccccc3NC(=O)c3ccccc32)CC1"
group = "no"

[[record]]
compound = "Cc1ccccc1NC(=O)C(=O)C1CN(c2ccccc2)N=C1N (stereo unspecified)"
group = "no"

[[record]]
compound = "Cc1ccc(S(=O)(=O)N2CCC3(C(/C=C/c4ccccc4)=Nc4ccccc43)C2c2ccccc2)cc1 (stereo unspecified)"
group = "no"

[[record]]
compound = "CCCCCCCCCCCCCCCCCC[N+](C)(C)Cc1ccc(C[N+](C)(C)CCCCCCCCCCCCCCCCCC)cc1"
group = "no"

[[record]]
compound = "O=Cc1c(Br)[nH]c2ccccc12"
group = "no"

[[record]]
compound = "COc1ccc(NC(=O)CC(=O)n2nc(C)c(/N=N/c3ccccc3C(=O)O)c2C)cc1"
group = "no"

[[record]]
compound = "COC(=O)OCC1OC(N2C(=O)NC(=O)C(Br)C2N=[N+]=[N-])CC1OC(=O)OC (stereo unspecified)"
group = "no"

[[record]]
compound = "CC(C)(C)C1=NO[C@H]2[C@@H](NC(=O)c3ccccc3)CC[C@@H]12"
group = "no"

[[record]]
compound = "Cc1cc(Cl)ccc1/N=C1/NC(=O)C(CC(=O)Nc2cccc(C)c2C)S1 (stereo unspecified)"
group = "no"

[[record]]
compound = "COC(=O)C1=CC2CC1C(S(=O)(=O)c1ccccc1)C2S(=O)(=O)c1ccccc1 (stereo unspecified)"
group = "no"

[[record]]
compound = "C1COCCN1.S=C(S)N1CCOCC1"
group = "yes"

[[record]]
compound = "CCCC(N)C(=O)c1ccccc1 (stereo unspecified)"
group = "no"

[[record]]
compound = "NC(=O)CCC(Nc1c2ccccc2nc2ccccc12)C(=O)O (stereo unspecified)"
group = "no"

[[record]]
compound = "Cc1ccc(C2=C(c3ccccc3)C(Br)(c3ccc(C)cc3)C(c3ccccc3)=C2c2ccc(C)cc2)cc1"
group = "no"


---

GI50 listing for selected compounds.
System: EKVX
test-method-notes: NCI tumour cell line growth inhibition, 48 h
Calls of active or inactive are those of the source. Cut-off read from the data, not from the text of the source: active = GI50 up to about 1.1 µM and inactive = higher. Non-standard residues stand in square brackets, D forms with d. Residues, ends and D or L forms follow the SMILES beside them. ξ: configuration not given here. *: point of attachment. NMeF = CN[C@@H](Cc1ccccc1)C(=O)O; ξNMeV = CNC(C(=O)O)C(C)C; Boc = CC(C)(C)OC(=O)*; OBn = c1ccc(CO*)cc1
measured-quantity: GI50

[[record]]
compound = "Cc1cccc2c1Sc1ccccc1C2NC(=O)CN(C)C (stereo not drawn)"
measured_quantity = "GI50"
reported_result = "> 100 µM (inactive)"

[[record]]
compound = "CC1(C)c2ccccc2C(C)(C)C(C(=O)Nc2ccccc2)C1C(=O)O (stereo not drawn)"
measured_quantity = "GI50"
reported_result = "> 100 µM (inactive)"

[[record]]
compound = "CC(=O)NC(CCCOC(C)=O)C(=O)NC(CCCOC(C)=O)C(=O)NC(CCCOC(C)=O)C(=O)NC(Cc1ccc([N+](=O)[O-])cc1)C(=O)NCC(=O)OCc1ccccc1 (stereo not drawn)"
measured_quantity = "GI50"
reported_result = "> 100 µM (inactive)"

[[record]]
compound = "CCCCCC(CN1CCOCC1)C(=O)/C=C/c1ccccc1 (stereo not drawn)"
measured_quantity = "GI50"
reported_result = "10.4 µM (inactive)"

[[record]]
compound = "Cc1ccc(S(=O)(=O)NC(=O)Nc2nc(Cl)cc(Cl)n2)cc1"
measured_quantity = "GI50"
reported_result = "> 100 µM (inactive)"

[[record]]
compound = "CC(C)C(C(=O)N1CCC[C@@H]1C(=O)OCc1ccccc1)N(C)C(=O)C(C(C)C)N(C)C(=O)[C@H](Cc1ccccc1)N(C)C(=O)[C@H](NC(=O)OC(C)(C)C)C(C)C (stereo partly drawn) (Boc-[dV][NMeF][ξNMeV][ξNMeV][dP]-OBn)"
measured_quantity = "GI50"
reported_result = "> 65.8 µM (inactive)"

[[record]]
compound = "CC1(C)OC(CCO)CN1C(=O)OCc1ccccc1 (stereo not drawn)"
measured_quantity = "GI50"
reported_result = "> 100 µM (inactive)"

[[record]]
compound = "COc1cc(/C=C/C(=O)Oc2ccc(NC(C)=O)cc2)ccc1C(=O)OCc1ccccc1"
measured_quantity = "GI50"
reported_result = "> 100 µM (inactive)"

